Where do the numbers come from? From paper PMC5584945.

experiment: Pharmacokinetics after IV administration; format: in vivo, mouse; conditions: mouse, plasma; male Swiss outbred mice; IV 5 mg/kg; read-out: Plasma VSS
metric: Vd (L/kg)
One number for each entry, in L/kg.

# Vd lookup, item Cc1ccc(/C=N/Nc2cc(N/N=C/c3ccc(C)cc3)nc(N)n2)cc1 [NCL195]
2.6

* * *

tested on: S. aureus; experiment: MIC, broth micro-dilution (CLSI); format: cell-based, Staphylococcus aureus; settings: Staphylococcus aureus, ATCC 29213 / MSSA, ATCC29213 MSSA (ST5); absence of FBS; read-out: MIC
metric: MIC (µg/mL)
Numbers only, in µg/mL.

# compound, MIC [µg/mL]
rows = [
    ("Cc1ccc(/C=N/Nc2cc(N/N=C/c3ccc(C)cc3)nc(N)n2)cc1 [NCL195]", 2),
    ("Cl.N=C(NN=Cc1ccc(Cl)cc1)NN=Cc1ccc(Cl)cc1 [NCL812]", 4),
    ("C/C(=N\\NC(=N)N/N=C(\\C)c1ccc(C(C)(C)C)cc1)c1ccc(C(C)(C)C)cc1 [NCL219]", 16),
    ("CCCCCCCCCC(=O)N[C@@H](Cc1c[nH]c2ccccc12)C(=O)N[C@H](CC(N)=O)C(=O)N[C@@H](CC(=O)O)C(=O)N[C@@H]1C(=O)NCC(=O)N[C@@H](CCCN)C(=O)N[C@@H](CC(=O)O)C(=O)N[C@H](C)C(=O)N[C@@H](CC(=O)O)C(=O)NCC(=O)N[C@H](CO)C(=O)N[C@@H]([C@H](C)CC(=O)O)C(=O)N[C@@H](CC(=O)c2ccccc2N)C(=O)O[C@@H]1C [Daptomycin, daptomycin]", 0.5),
]

# MIC lookup, item CC1(C)S[C@@H]2[C@H](NC(=O)[C@H](N)c3ccccc3)C(=O)N2[C@H]1C(=O)O [Ampicillin]
2

* * *

system: vancomycin-resistant enterococci (VRE); assay: MIC, broth micro-dilution (CLSI); format: cell-based, enterococci (porcine isolates); settings: Enterococcus, VRE, VRE 3 (55 FR); absence of FBS
metric: MIC (µg/mL)
Numbers only, in µg/mL.

Some solved cases for reference:
# mol.smiles, target.or.test.system, recorded.result
records = [
    ("Cl.N=C(NN=Cc1ccc(Cl)cc1)NN=Cc1ccc(Cl)cc1", "vancomycin-resistant enterococci (VRE)", 2),
    ("CC1(C)S[C@@H]2[C@H](NC(=O)[C@H](N)c3ccccc3)C(=O)N2[C@H]1C(=O)O", "vancomycin-resistant enterococci (VRE)", 1),
]

Quick one: give me MIC for each item below, same order please.
1. C/C(=N\NC(=N)N/N=C(\C)c1ccc(C(C)(C)C)cc1)c1ccc(C(C)(C)C)cc1
2. CCCCCCCCCC(=O)N[C@@H](Cc1c[nH]c2ccccc12)C(=O)N[C@H](CC(N)=O)C(=O)N[C@@H](CC(=O)O)C(=O)N[C@@H]1C(=O)NCC(=O)N[C@@H](CCCN)C(=O)N[C@@H](CC(=O)O)C(=O)N[C@H](C)C(=O)N[C@@H](CC(=O)O)C(=O)NCC(=O)N[C@H](CO)C(=O)N[C@@H]([C@H](C)CC(=O)O)C(=O)N[C@@H](CC(=O)c2ccccc2N)C(=O)O[C@@H]1C
3. Cc1ccc(/C=N/Nc2cc(N/N=C/c3ccc(C)cc3)nc(N)n2)cc1

1. 2
2. 2
3. 2

* * *

tested on: S. pneumoniae; assay: MIC, broth micro-dilution (CLSI); format: cell-based, Streptococcus pneumoniae; conditions: Streptococcus pneumoniae, WCH184 (serotype 19F); 5% FBS
Consider the cut-off 2 µg/mL. If the recorded MIC is strictly smaller, the label is Y; if not, the label is N.

// below: answered molecules
# mol.smiles, category
records = [
    ("Cc1ccc(/C=N/Nc2cc(N/N=C/c3ccc(C)cc3)nc(N)n2)cc1", "N"),
    ("CC1(C)S[C@@H]2[C@H](NC(=O)[C@H](N)c3ccccc3)C(=O)N2[C@H]1C(=O)O", "Y"),
    ("CCCCCCCCCC(=O)N[C@@H](Cc1c[nH]c2ccccc12)C(=O)N[C@H](CC(N)=O)C(=O)N[C@@H](CC(=O)O)C(=O)N[C@@H]1C(=O)NCC(=O)N[C@@H](CCCN)C(=O)N[C@@H](CC(=O)O)C(=O)N[C@H](C)C(=O)N[C@@H](CC(=O)O)C(=O)NCC(=O)N[C@H](CO)C(=O)N[C@@H]([C@H](C)CC(=O)O)C(=O)N[C@@H](CC(=O)c2ccccc2N)C(=O)O[C@@H]1C", "Y"),
]

Next up:
Find out if reported MIC for Cl.N=C(NN=Cc1ccc(Cl)cc1)NN=Cc1ccc(Cl)cc1 is less than 2 µg/mL
N

* * *

system: S. pneumoniae; experiment: MIC, broth micro-dilution (CLSI); assay type: cell-based, Streptococcus pneumoniae; conditions: Streptococcus pneumoniae, WCH137 (serotype 6A); 5% FBS
metric: MIC (µg/mL)
Numbers only, in µg/mL.

# compound, target.or.test.system, metric, recorded.result
rows = [
    ("C/C(=N\\NC(=N)N/N=C(\\C)c1ccc(C(C)(C)C)cc1)c1ccc(C(C)(C)C)cc1 [NCL219]", "S. pneumoniae", "MIC", 4),
]

Could you now look at the following compound, please?
Can you look up MIC on S. pneumoniae for CCCCCCCCCC(=O)N[C@@H](Cc1c[nH]c2ccccc12)C(=O)N[C@H](CC(N)=O)C(=O)N[C@@H](CC(=O)O)C(=O)N[C@@H]1C(=O)NCC(=O)N[C@@H](CCCN)C(=O)N[C@@H](CC(=O)O)C(=O)N[C@H](C)C(=O)N[C@@H](CC(=O)O)C(=O)NCC(=O)N[C@H](CO)C(=O)N[C@@H]([C@H](C)CC(=O)O)C(=O)N[C@@H](CC(=O)c2ccccc2N)C(=O)O[C@@H]1C [Daptomycin, daptomycin] ?
0.125

* * *

assay: LogD by gradient HPLC chromatographic method; type: physicochemical; conditions: pH 7.4
Answer each item with its documented chromatographic logD.
Give bare numbers.

# mol.smiles, chromatographic logD
rows = [
    ("Cl.N=C(NN=Cc1ccc(Cl)cc1)NN=Cc1ccc(Cl)cc1", 4.5),
]

Could you now look at the following compound, please?
# chromatographic logD lookup, item Cc1ccc(/C=N/Nc2cc(N/N=C/c3ccc(C)cc3)nc(N)n2)cc1
4.5

* * *

Answer each item with its documented MIC.
test system: S. aureus; test: MIC, broth micro-dilution (CLSI); format: cell-based, Staphylococcus aureus; conditions: Staphylococcus aureus, IRISH 2 – HA-EMRSA (ST8); absence of FBS; read-out: MIC
Answers are plain numbers, in µg/mL.

# mol.smiles, target.or.test.system, unit.text, MIC
records = [
    ("C/C(=N\\NC(=N)N/N=C(\\C)c1ccc(C(C)(C)C)cc1)c1ccc(C(C)(C)C)cc1", "S. aureus", "µg/mL", 32),
]

Could you now look at the following compound, please?
# MIC lookup, item Cl.N=C(NN=Cc1ccc(Cl)cc1)NN=Cc1ccc(Cl)cc1
2

* * *

tested on: S. pneumoniae; assay: MIC, broth micro-dilution (CLSI); assay type: cell-based, Streptococcus pneumoniae; settings: Streptococcus pneumoniae, TIGR4 (serotype 4); 5% FBS
metric: MIC (µg/mL)
Answers are plain numbers, in µg/mL.

Some solved cases for reference:
# mol.smiles, target.or.test.system, MIC, µg/mL
measured = [
    ("CCCCCCCCCC(=O)N[C@@H](Cc1c[nH]c2ccccc12)C(=O)N[C@H](CC(N)=O)C(=O)N[C@@H](CC(=O)O)C(=O)N[C@@H]1C(=O)NCC(=O)N[C@@H](CCCN)C(=O)N[C@@H](CC(=O)O)C(=O)N[C@H](C)C(=O)N[C@@H](CC(=O)O)C(=O)NCC(=O)N[C@H](CO)C(=O)N[C@@H]([C@H](C)CC(=O)O)C(=O)N[C@@H](CC(=O)c2ccccc2N)C(=O)O[C@@H]1C", "S. pneumoniae", 0.25),
    ("C/C(=N\\NC(=N)N/N=C(\\C)c1ccc(C(C)(C)C)cc1)c1ccc(C(C)(C)C)cc1", "S. pneumoniae", 2),
    ("CC1(C)S[C@@H]2[C@H](NC(=O)[C@H](N)c3ccccc3)C(=O)N2[C@H]1C(=O)O", "S. pneumoniae", 0.125),
    ("Cl.N=C(NN=Cc1ccc(Cl)cc1)NN=Cc1ccc(Cl)cc1", "S. pneumoniae", 4),
]

Could you now look at the following compound, please?
# MIC lookup, item Cc1ccc(/C=N/Nc2cc(N/N=C/c3ccc(C)cc3)nc(N)n2)cc1
4

* * *

Answer each item with its documented MIC.
tested on: vancomycin-resistant enterococci (VRE); assay: MIC, broth micro-dilution (CLSI); assay type: cell-based, enterococci (porcine isolates); conditions: Enterococcus, VRE, VRE 7 (270 G); absence of FBS
Answers are plain numbers, in µg/mL.

Quick one: give me MIC for each item below, same order please.
1. Cl.N=C(NN=Cc1ccc(Cl)cc1)NN=Cc1ccc(Cl)cc1
2. Cc1ccc(/C=N/Nc2cc(N/N=C/c3ccc(C)cc3)nc(N)n2)cc1

1: 4; 2: 4

# MIC lookup, item CC1(C)S[C@@H]2[C@H](NC(=O)[C@H](N)c3ccccc3)C(=O)N2[C@H]1C(=O)O
0.25
